test-name: Biodistribution of radiotracers in normal mice
Format: in vivo, mouse
run-conditions: normal male mice, 2 min
reported-endpoint: Biodistribution: Lung (% dose/g)
Unit % dose/g implied. Number only.

compound	readout-unit	observed-value
O=C(O)CC[C@H](NC(=O)N[C@@H](CCCCNC(=O)CCCCCNC(=O)CCc1ccc2c(c1)C[N+]13CC[N+]45CC(=O)[O][68Ga-3]14([O]C(=O)C3)([O]2)[O]c1ccc(CCC(=O)NCCNC(=O)CN2CCN(CC(=O)O)CCN(CC(=O)O)CCN(CC(=O)O)CC2)cc1C5)C(=O)O)C(=O)O (some centres unmarked) [[^68Ga]1g]	% dose/g	5.19

Kindly review the next compound as well.
QUERY: Entry C[C@H](NC(=O)CCc1ccc2c(c1)C[N+]13CC[N+]45CC(=O)[O][68Ga-3]41([O]C(=O)C3)([O]c1ccc(CCC(=O)NCCCCCC(=O)NCCCC[C@H](NC(=O)N[C@@H](CCC(=O)O)C(=O)O)C(=O)O)cc1C5)[O]2)C(=O)O (some centres unmarked) [[^68Ga]1d] : reported Biodistribution: Lung = ?
RESULT: 4.96

----------
test-name: Biodistribution of radiotracers in normal mice
Assay type: in vivo, mouse
run-conditions: normal male mice, 30 min
Procedure: Normal CD-1 male mice were injected via the tail vein with 35 μCi of [^68Ga] radiotracers (0.2 nmole of ligand). […] All organs were removed and blood was also collected. Each organ was weighed, and the tissue radioactivity was measured with an automated gamma counter (Wizard, Perkin Elmer). The % ID/g was calculated by comparison with samples of a standard dilution of the initial dose. All measurements were corrected for decay.
reported-endpoint: Biodistribution: Spleen (% dose/g)
Unit % dose/g implied. Number only.

Past entries and their recorded results:
compound	observed-value
O=C(O)CCc1ccc2c(c1)C[N+]13CC[N+]45CC(=O)[O][68Ga-3]14([O]C(=O)C3)([O]2)[O]c1ccc(CCC(=O)NCC(=O)N[C@@H](Cc2ccc(OCC(=O)N[C@@H](Cc3ccccc3)C(=O)NCCCC[C@H](NC(=O)N[C@@H](CCC(=O)O)C(=O)O)C(=O)O)cc2)C(=O)O)cc1C5 (stereo partly drawn) [[^68Ga]5b]	1.70
O=C(O)CC[C@H](NC(=O)N[C@@H](CCCCNC(=O)CCCCCNC(=O)CCc1ccc2c(n1)C[N+]13CC[N+]45CC(=O)[O][68Ga-3]14([O]C(=O)C3)([O]2)[O]c1ccc(CCC(=O)NCCCCCC(=O)NCCCC[C@H](NC(=O)N[C@@H](CCC(=O)O)C(=O)O)C(=O)O)nc1C5)C(=O)O)C(=O)O (stereo partly drawn) [[^68Ga]3]	4.35

Kindly review the next compound as well.
QUERY: Entry O=C(O)CC[C@H](NC(=O)N[C@@H](CCCCNC(=O)CCCCCNC(=O)CCc1ccc2c(c1)C[N+]13CC[N+]45CC(=O)[O][68Ga-3]14([O]C(=O)C3)([O]2)[O]c1ccc(CCC(=O)NCCNC(=O)CN2CCN(CC(=O)O)CCN(CC(=O)O)CCN(CC(=O)O)CC2)cc1C5)C(=O)O)C(=O)O (stereo partly drawn) [[^68Ga]1g] : reported Biodistribution: Spleen = ?
RESULT: 5.28

----------
test-name: Biodistribution of radiotracers in normal mice
Format: in vivo, mouse
run-conditions: normal male mice, 60 min
reported-endpoint: Biodistribution: Blood (% dose/g)
Unit % dose/g implied. Number only.

Past entries and their recorded results:
molecule	readout-unit	observed-value
O=C(O)CCc1ccc2c(c1)C[N+]13CC[N+]45CC(=O)[O][68Ga-3]14([O]C(=O)C3)([O]2)[O]c1ccc(CCC(=O)NCCCCCC(=O)NCCCC[C@H](NC(=O)N[C@@H](CCC(=O)O)C(=O)O)C(=O)O)cc1C5 (stereo partly shown) [[^68Ga]1a, reference compound]	% dose/g	0.33
O=C(O)CCc1ccc2c(n1)C[N+]13CC[N+]45CC(=O)[O][68Ga-3]14([O]C(=O)C3)([O]2)[O]c1ccc(CCC(=O)NCCCCCC(=O)NCCCC[C@H](NC(=O)N[C@@H](CCC(=O)O)C(=O)O)C(=O)O)nc1C5 (stereo partly shown) [[^68Ga]2]	% dose/g	0.89
O=C(O)CC[C@H](NC(=O)N[C@@H](CCCCNC(=O)CCCCCNC(=O)CCc1ccc2c(n1)C[N+]13CC[N+]45CC(=O)[O][68Ga-3]14([O]C(=O)C3)([O]2)[O]c1ccc(CCC(=O)NCCCCCC(=O)NCCCC[C@H](NC(=O)N[C@@H](CCC(=O)O)C(=O)O)C(=O)O)nc1C5)C(=O)O)C(=O)O (stereo partly shown) [[^68Ga]3]	% dose/g	1.52
O=C(O)CCc1ccc(O)c(CN(CCN(CC(=O)O)Cc2cc(CCC(=O)NCCCCCC(=O)NCCCC[C@H](NC(=O)N[C@@H](CCC(=O)O)C(=O)O)C(=O)O)ccc2O)CC(=O)O)n1 [[^68Ga]4a, metal not drawn]	% dose/g	0.30
O=C(O)CC[C@H](NC(=O)CCc1ccc2c(c1)C[N+]13CC[N+]45CC(=O)[O][68Ga-3]41([O]C(=O)C3)([O]c1ccc(CCC(=O)NCCCCCC(=O)NCCCC[C@H](NC(=O)N[C@@H](CCC(=O)O)C(=O)O)C(=O)O)cc1C5)[O]2)C(=O)O (stereo partly shown) [[^68Ga]1f]	% dose/g	0.97
O=C(O)CC[C@H](NC(=O)N[C@@H](CCCCNC(=O)CCCCCNC(=O)CCc1ccc2c(c1)C[N+]13CC[N+]45CC(=O)[O][68Ga-3]14([O]C(=O)C3)([O]2)[O]c1ccc(CCC(=O)NCC(=O)O)cc1C5)C(=O)O)C(=O)O (stereo partly shown) [[^68Ga]1c]	% dose/g	0.58
C[C@H](NC(=O)CCc1ccc2c(c1)C[N+]13CC[N+]45CC(=O)[O][68Ga-3]41([O]C(=O)C3)([O]c1ccc(CCC(=O)NCCCCCC(=O)NCCCC[C@H](NC(=O)N[C@@H](CCC(=O)O)C(=O)O)C(=O)O)cc1C5)[O]2)C(=O)O (stereo partly shown) [[^68Ga]1d]	% dose/g	0.44
O=C(O)CC[C@H](NC(=O)N[C@@H](CCCCNC(=O)CCCCCNC(=O)CCc1ccc2c(c1)C[N+]13CC[N+]45CC(=O)[O][68Ga-3]14([O]C(=O)C3)([O]2)[O]c1ccc(CCC(=O)N[C@@H](CC(=O)O)C(=O)O)cc1C5)C(=O)O)C(=O)O (stereo partly shown) [[^68Ga]1e]	% dose/g	0.45

QUERY: Entry O=C(O)CCc1ccc2c(c1)C[N+]13CC[N+]45CC(=O)[O][68Ga-3]14([O]C(=O)C3)([O]2)[O]c1ccc(CCC(=O)NCC(=O)N[C@@H](Cc2ccc(OCC(=O)N[C@@H](Cc3ccccc3)C(=O)NCCCC[C@H](NC(=O)N[C@@H](CCC(=O)O)C(=O)O)C(=O)O)cc2)C(=O)O)cc1C5 (stereo partly shown) [[^68Ga]5b] : reported Biodistribution: Blood = ?
RESULT: 0.48

QUERY: Entry O=C(O)CC[C@H](NC(=O)N[C@@H](CCCCNC(=O)CCCCCNC(=O)CCc1ccc2c(c1)C[N+]13CC[N+]45CC(=O)[O][68Ga-3]14([O]C(=O)C3)([O]2)[O]c1ccc(CCC(=O)NCCNC(=O)CN2CCN(CC(=O)O)CCN(CC(=O)O)CCN(CC(=O)O)CC2)cc1C5)C(=O)O)C(=O)O (stereo partly shown) [[^68Ga]1g] : reported Biodistribution: Blood = ?
RESULT: 0.41

----------
test-name: Biodistribution of radiotracers in normal mice
Assay type: in vivo, mouse
run-conditions: normal male mice, 120 min
reported-endpoint: Biodistribution: Bone (% dose/g)
Unit % dose/g implied. Number only.

Past entries and their recorded results:
molecule	reported-endpoint	observed-value
O=C(O)CCc1ccc2c(n1)C[N+]13CC[N+]45CC(=O)[O][68Ga-3]14([O]C(=O)C3)([O]2)[O]c1ccc(CCC(=O)NCCCCCC(=O)NCCCC[C@H](NC(=O)N[C@@H](CCC(=O)O)C(=O)O)C(=O)O)nc1C5 (stereo partly drawn) [[^68Ga]2]	Biodistribution: Bone	0.60
O=C(O)CC[C@H](NC(=O)N[C@@H](CCCCNC(=O)CCCCCNC(=O)CCc1ccc2c(n1)C[N+]13CC[N+]45CC(=O)[O][68Ga-3]14([O]C(=O)C3)([O]2)[O]c1ccc(CCC(=O)NCCCCCC(=O)NCCCC[C@H](NC(=O)N[C@@H](CCC(=O)O)C(=O)O)C(=O)O)nc1C5)C(=O)O)C(=O)O (stereo partly drawn) [[^68Ga]3]	Biodistribution: Bone	3.56
O=C(O)CCc1ccc(O)c(CN(CCN(CC(=O)O)Cc2cc(CCC(=O)NCCCCCC(=O)NCCCC[C@H](NC(=O)N[C@@H](CCC(=O)O)C(=O)O)C(=O)O)ccc2O)CC(=O)O)n1 [[^68Ga]4a, metal not drawn]	Biodistribution: Bone	0.23
O=C(O)CCc1ccc2c(c1)C[N+]13CC[N+]45CC(=O)[O][68Ga-3]14([O]C(=O)C3)([O]2)[O]c1ccc(CCC(=O)NCC(=O)N[C@@H](Cc2ccc(OCC(=O)N[C@@H](Cc3ccccc3)C(=O)NCCCC[C@H](NC(=O)N[C@@H](CCC(=O)O)C(=O)O)C(=O)O)cc2)C(=O)O)cc1C5 (stereo partly drawn) [[^68Ga]5b]	Biodistribution: Bone	0.26

QUERY: Entry O=C(O)CCc1ccc2c(c1)C[N+]13CC[N+]45CC(=O)[O][68Ga-3]14([O]C(=O)C3)([O]2)[O]c1ccc(CCC(=O)NCCCCCC(=O)NCCCC[C@H](NC(=O)N[C@@H](CCC(=O)O)C(=O)O)C(=O)O)cc1C5 (stereo partly drawn) [[^68Ga]1a, reference compound] : reported Biodistribution: Bone = ?
RESULT: 0.21

QUERY: Entry O=C(O)CC[C@H](NC(=O)N[C@@H](CCCCNC(=O)CCCCCNC(=O)CCc1ccc2c(c1)C[N+]13CC[N+]45CC(=O)[O][68Ga-3]14([O]C(=O)C3)([O]2)[O]c1ccc(CCC(=O)NCCNC(=O)CN2CCN(CC(=O)O)CCN(CC(=O)O)CCN(CC(=O)O)CC2)cc1C5)C(=O)O)C(=O)O (stereo partly drawn) [[^68Ga]1g] : reported Biodistribution: Bone = ?
RESULT: 0.28
